System: Plasmodium falciparum
ASSAY PROTOCOL: GSK_TCMDC: Inhibition of Plasmodium falciparum Dd2 in whole red blood cells, using parasite LDH activity as an index of growth. Test compounds present at 2uM
Format: functional
// NB: equality with 60% counts as condition not met; only Inhibition strictly below is condition met

Below are worked cases with known answers.
CCN(CC)/C(=N/C(=N)Nc1ccc(Br)cc1)NCCCCCCN/C(=N\C(=N)Nc1ccc(Br)cc1)N(CC)CC: condition not met
COc1ccc(CN2CCC(CNCCc3ccccc3Cl)CC2)cc1.O=C(O)C(F)(F)F: condition met
CN1CCN(c2cc(NC(=O)c3ccc(-c4ccc(C#N)cc4)cc3)ccc2Cl)CC1: condition not met
Cc1ccccc1N1CCN(c2ccc(C(=O)NC(C)C)cn2)CC1.O=C(O)C(F)(F)F: condition not met
Cn1nc(-c2cccc(CNCCc3cccs3)c2)c2cnc(NC3CCCC3)nc21: condition met
Cc1cccc2nc(-c3ccc(-c4ccc(CN5CCCC(O)C5)cc4)s3)[nH]c12.O=C(O)C(F)(F)F (centres undefined): condition met
O=C(NCCCCN1CCC(c2ccc3c(c2OCC(O)c2ccc(Cl)cc2)CCCC3)CC1)c1ccc(-c2ccc(C(F)(F)F)cc2)cc1 (centres undefined): condition not met

I'd appreciate it if you could check whether CC(C)(C)c1cc(C(=O)N2CCC(c3ccccn3)CC2)n(Cc2ccccc2)n1 has Inhibition smaller than 60%. condition not met
